B1: CPEB3 Ribozyme (parent)
chain: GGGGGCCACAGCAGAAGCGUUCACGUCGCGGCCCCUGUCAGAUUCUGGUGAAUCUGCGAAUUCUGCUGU

Variants of: B1
Method notes: self-cleavage, relative activity (ratio to wild type); higher = more cleavage; co-transcriptional
Decide by self-cleavage: equal to or exceeding 0.6 means Criterion met, less means Criterion not met.

Solved cases below.
Exercise: Reported self-cleavage reaches at least 0.6 for `U49A` ?
Solution: Criterion met

Exercise: Try the variant G1U A10G
Solution: Criterion not met

Exercise: Try the variant A13U C63U
Solution: Criterion met

Okay, now this variant:
Exercise: Reported self-cleavage reaches at least 0.6 for C22U U26C ?
Solution: Criterion not met
